Reported values of log10 of MIC80 for individual entries
Test system: C. neoformans var. grubii, KN99
assay-summary: C. neoformans growth inhibition assay (limiting dilution)
Format: cell-based, Cryptococcus neoformans
test-conditions: Cryptococcus neoformans, 48 h, Table 2 amides; 48 h, 35° C., tested 0.19 to 50 μM; read-out: C. neoformans MIC80
assay-endpoint: log10 of MIC80 (log10 of the value in µM)

> print(dat)
                            substance.smiles  recorded.value
 1  Cc1ccc(CNC(=O)c2cc(O)c(=O)c(O)cc2C)c(C)c1            0.52
 2       Cc1cc(O)c(=O)c(O)cc1C(=O)NCc1ccccc1            0.95
 3  C#CCCC1(CCNC(=O)c2cc(O)c(=O)c(O)cc2C)N=N1            0.54
 4    Cc1cc(O)c(=O)c(O)cc1C(=O)Nc1ccc(F)cc1F            0.65
 5  Cc1cc(O)c(=O)c(O)cc1C(=O)N1CCN(C(c2ccc(F)cc2)c2ccc(F)cc2)CC1            0.78
 6  Cc1cc(O)c(=O)c(O)cc1C(=O)Nc1cccc(OCc2ccccc2)c1            0.65
 7  Cc1cc(O)c(=O)c(O)cc1C(=O)N1CCN(S(=O)(=O)c2ccsc2)CC1            1.70
 8  Cc1cc(O)c(=O)c(O)cc1C(=O)NCc1ccc(OC(F)(F)F)cc1            0.83
 9     Cc1cc(O)c(=O)c(O)cc1C(=O)NCCCc1ccccc1            1.26
10  Cc1cc(O)c(=O)c(O)cc1C(=O)Nc1ccc(Cc2ccccc2)cc1            0.08
11  Cc1cc(O)c(=O)c(O)cc1C(=O)Nc1ccccc1Cc1ccccc1            0.95
12  Cc1cc(O)c(=O)c(O)cc1C(=O)N1CCN(C(=O)c2ccc([N+](=O)[O-])c3nonc23)CC1            1.70
13  Cc1cc(O)c(=O)c(O)cc1C(=O)N1CCN(c2ccc(C(F)(F)F)cc2)CC1            0.40
14  Cc1cc(O)c(=O)c(O)cc1C(=O)N1CCN(C(=O)OC(C)(C)C)CC1            1.30
15  Cc1cc(O)c(=O)c(O)cc1C(=O)N1CCN(C(=O)N(c2ccccc2)c2ccccc2)CC1            0.90
16  Cc1cc(O)c(=O)c(O)cc1C(=O)N1CCN(c2ncccn2)CC1            1.26
17  Cc1cc(O)c(=O)c(O)cc1C(=O)NCc1ccc(N2CCCC2)cc1            0.65
18  Cc1cc(O)c(=O)c(O)cc1C(=O)N1CCN(C2CC2)CC1            1.70

* * *

System: C. neoformans var. grubii, KN99
assay-summary: C. neoformans growth inhibition assay (limiting dilution)
Assay type: cell-based, Cryptococcus neoformans
test-conditions: Cryptococcus neoformans, 48 h, Table 2 amides; 48 h, 35° C., tested 0.19 to 50 μM; read-out: C. neoformans MIC80
Our labelling divides records by MIC80 into ranges: low interval (below 5 µM), middle interval (5 µM to below 20 µM), high interval (20 µM or more)

> print(dat)
                                    compound         category
 1         Cc1cc(O)c(=O)c(O)cc1C(=O)N1CCCCC1    high interval
 2        Cc1cc(O)c(=O)c(O)cc1C(=O)NCc1cccs1    high interval
 3  COC(=O)[C@H](CC(C)C)NC(=O)c1cc(O)c(=O)c(O)cc1C  middle interval
 4  COc1ccc(C(=O)N2CCN(C(=O)c3cc(O)c(=O)c(O)cc3C)CC2)cc1  middle interval
 5        Cc1cc(O)c(=O)c(O)cc1C(=O)Nc1ccccc1  middle interval
 6  Cc1cc(O)c(=O)c(O)cc1C(=O)NC(CCC(=O)OC(C)(C)C)C(=O)OC(C)(C)C (stereo not drawn)     low interval
 7  Cc1cc(O)c(=O)c(O)cc1C(=O)NCC1COC(C)(C)O1 (stereo not drawn)  middle interval
 8            CCCCNC(=O)c1cc(O)c(=O)c(O)cc1C  middle interval
 9  Cc1cc(O)c(=O)c(O)cc1C(=O)Nc1ccc(OCc2ccccc2)cc1     low interval
10  Cc1cc(O)c(=O)c(O)cc1C(=O)N1CCN(C(=O)c2cccnc2)CC1    high interval
11  Cc1cc(O)c(=O)c(O)cc1C(=O)NCc1ccc(-c2ccccc2)cc1     low interval
12  Cc1cc(O)c(=O)c(O)cc1C(=O)NCC1CCOC1 (stereo not drawn)    high interval
13  Cc1cc(O)c(=O)c(O)cc1C(=O)N1CCN(C(=O)c2ccc(Cl)cc2)CC1  middle interval

* * *

assay-summary: in vitro
test-conditions: human, CC50 (μM), Table 2 amides; HepDES19 cells, MTT
Reported values of log10(CC50 at 24 h) for individual entries
assay-endpoint: log10(CC50 at 24 h) (log10 of the value in µM)

> print(dat)
                                   compound       assay.endpoint  recorded.value
1  Cc1cc(O)c(=O)c(O)cc1C(=O)NC(CCCCNC(=O)OC(C)(C)C)C(=O)OC(C)(C)C (centres unmarked) [compound 869]  log10(CC50 at 24 h)            1.16
2  COc1ccc(CNC(=O)c2cc(O)c(=O)c(O)cc2C)cc1 [compound 806]  log10(CC50 at 24 h)            1.20
3  COC(=O)[C@H](CC(C)C)NC(=O)c1cc(O)c(=O)c(O)cc1C [compound 794]  log10(CC50 at 24 h)            1.17
4  Cc1cc(O)c(=O)c(O)cc1C(=O)Nc1cccc(OCc2ccccc2)c1 [compound 836]  log10(CC50 at 24 h)            0.73
5  COC(=O)[C@H](Cc1ccccc1)NC(=O)c1cc(O)c(=O)c(O)cc1C [compound 795]  log10(CC50 at 24 h)            1.10
6  Cc1cc(O)c(=O)c(O)cc1C(=O)N1CCN(C(=O)N(c2ccccc2)c2ccccc2)CC1 [compound 1020]  log10(CC50 at 24 h)            0.89
7  Cc1cc(O)c(=O)c(O)cc1C(=O)NCC1CCN(C(=O)OC(C)(C)C)CC1 [compound 805]  log10(CC50 at 24 h)            1.29
8  Cc1cc(O)c(=O)c(O)cc1C(=O)NC(CCC(=O)O)C(=O)O (centres unmarked) [compound 868]  log10(CC50 at 24 h)            2.00

* * *

Reported values of IC50 for individual entries
test-system: human RNaseH1 (Homo sapiens, UniProt O60930)
Sequence (O60930 1-286): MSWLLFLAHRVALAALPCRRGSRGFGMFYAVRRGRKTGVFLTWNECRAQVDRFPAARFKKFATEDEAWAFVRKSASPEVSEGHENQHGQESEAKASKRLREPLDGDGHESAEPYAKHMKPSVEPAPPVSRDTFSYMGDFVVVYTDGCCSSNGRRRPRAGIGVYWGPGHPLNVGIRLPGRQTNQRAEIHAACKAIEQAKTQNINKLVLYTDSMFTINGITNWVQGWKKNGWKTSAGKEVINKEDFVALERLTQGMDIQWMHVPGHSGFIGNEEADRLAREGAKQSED
assay-summary: Biochemical inhibition of human RNaseH1 activity
test-conditions: Table 3 sulfur compounds; read-out: Hu RNaseH IC50
assay-endpoint: IC50 (µM)

> print(dat)
                                    molecule  recorded.value
 1  O=c1c(O)cccc(S(=O)(=O)c2cccc3ccccc23)c1O [compound 698]             234
 2  CCCCSc1ccc(SCCCC)c(O)c(=O)c1O [compound 694]             127
 3         O=c1c(O)cccc(S)c1O [compound 701]              46
 4  O=c1c(O)cccc(SCc2ccccc2)c1O [compound 702]            31.7
 5  O=c1c(O)cccc(Sc2ccccc2)c1O [compound 691]            31.9
 6  O=c1c(O)cccc(S(=O)(=O)Cc2ccccc2)c1O [compound 705]             135
 7  O=c1c(O)c(SCc2ccccc2)ccc(SCc2ccccc2)c1O [compound 703]            49.6
 8  O=c1c(O)cccc(SCCc2ccccc2)c1O [compound 704]            24.7
 9  Cc1ccc(Sc2cccc(O)c(=O)c2O)cc1 [compound 838]             100
10  O=c1c(O)cccc(Sc2cccc3ccccc23)c1O [compound 839]             201
11   CCCCCCSc1cccc(O)c(=O)c1O [compound 840]            72.8
